Value source: patent US12071411B2

biological target: HIF-2α (Homo sapiens, UniProt Q99814); assay: HIF-2α Luciferase Reporter Assay (serum), HRE-luciferase 786-0 cells in 100% human serum; assay type: cell-based; conditions: 100% human serum, 786-0 reporter cells, overnight incubation; read-out: Serum Potency
Sequence (Q99814 whole entry): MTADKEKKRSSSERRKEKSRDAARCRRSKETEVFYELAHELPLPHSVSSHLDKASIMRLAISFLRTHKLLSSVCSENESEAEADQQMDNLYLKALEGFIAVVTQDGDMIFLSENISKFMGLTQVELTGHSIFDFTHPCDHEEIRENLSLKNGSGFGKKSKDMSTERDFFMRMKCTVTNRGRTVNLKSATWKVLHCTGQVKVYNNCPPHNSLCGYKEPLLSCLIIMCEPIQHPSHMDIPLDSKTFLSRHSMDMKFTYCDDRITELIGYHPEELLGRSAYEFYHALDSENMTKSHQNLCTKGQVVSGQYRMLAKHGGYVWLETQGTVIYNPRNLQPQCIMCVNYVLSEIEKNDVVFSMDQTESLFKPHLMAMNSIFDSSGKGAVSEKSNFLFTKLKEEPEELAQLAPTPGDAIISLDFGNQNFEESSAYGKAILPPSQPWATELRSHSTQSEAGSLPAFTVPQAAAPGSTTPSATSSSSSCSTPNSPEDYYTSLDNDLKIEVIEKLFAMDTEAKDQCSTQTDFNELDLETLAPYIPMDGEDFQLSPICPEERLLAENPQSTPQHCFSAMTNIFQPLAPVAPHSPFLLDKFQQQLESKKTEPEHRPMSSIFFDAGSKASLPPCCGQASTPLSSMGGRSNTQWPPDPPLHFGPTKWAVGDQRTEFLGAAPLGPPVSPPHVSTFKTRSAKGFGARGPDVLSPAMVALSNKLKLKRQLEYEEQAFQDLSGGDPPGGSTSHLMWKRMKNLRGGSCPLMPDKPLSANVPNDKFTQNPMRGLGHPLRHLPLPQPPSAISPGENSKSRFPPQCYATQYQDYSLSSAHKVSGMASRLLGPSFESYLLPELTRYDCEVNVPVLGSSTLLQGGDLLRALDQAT
Property name: IC50

O[C@H]1c2c(C(F)(F)F)nn(C3CC4(C3)CC(F)(F)C4)c2CC1(F)F | 100 to 1000 nM
O[C@H]1c2c(C(F)(F)F)nn([C@H]3C[C@@H]4[C@H](C3)C4(F)F)c2CC1(F)F (single isomer, unassigned) [125/126 DIAST-1] | > 1000 nM

Lookup result for O=S1(=O)CC(Cn2nc(C(F)(F)F)c3c2C[C@@H](F)[C@H]3O)C1 ; measured IC50: > 1000 nM

Lookup result for O[C@H]1c2c(C(F)(F)F)nn([C@H]3C[C@H](COC(F)F)C3)c2CCC1(F)F ; measured IC50: > 1000 nM
